test system: TK-10; test: NCI tumour cell line growth inhibition, 48 h
Calls of active or inactive are those of the source. No stated cut-off is given here; in the data, active = GI50 up to about 1.1 µM and inactive = higher.
Classes used: True (active), False (inactive)

Molecule	Assigned class
CC(=O)O[C@@H]1C2=C(C3=C([O-])C4=CC=CC(=O)C4C(=O)C3=C2[N+]#N)[C@H](OC(C)=O)[C@@H](OC(C)=O)[C@]1(C)O (some centres not stated)	True
COC(=O)[C@]12CSCN1C(=O)C(C(C)=O)=NN2C(=O)[C@](OC)(c1ccccc1)C(F)(F)F	False
C=CC1(O)CCCC=C1COCc1ccccc1 (configuration not stated)	False
NS(=O)(=O)c1cc(Cl)c(NC(=S)NC(=O)Nc2ccc(Cl)c(Cl)c2)c(Cl)c1	False
COc1ccc(C(=O)c2[nH]c(Nc3cc(C)ccn3)c(C(=S)Nc3ccccc3)c2N)cc1	False
COc1ccc2c(c1)c(CC(=O)O)c(C)n2C(=O)c1ccc(Cl)cc1	False
COC(=O)/C=C1/OC(c2ccc(Br)cc2)=C(Br)C1=O	False
Cc1cc2[nH]c3c(C#N)c(-c4ccccc4)c(/C=N/c4cccc(C(F)(F)F)c4)c(=O)n3c2cc1C	False
C=CC1(CC)/C(=N\O)C(CC)(CC)C(=O)N1O (configuration not stated)	False
CCOC(=O)Cc1nc2ccccc2s1	False
CCOC(=O)NC(=S)NC(C)c1ccccc1 (configuration not stated)	False
Cc1cc(SCC(=O)c2ccc(Br)cc2)cc(C)[o+]1	False
CN(O)C(=O)CCCC(=O)NCC(C)(C)CNC(=O)CCCC(=O)N(C)O	False
COC(=O)c1ccc(Cc2cc(Cc3ccc(C(=O)OC)cc3)cc(Cc3ccc(C(=O)OC)cc3)c2)cc1	False
CN(C)CCn1cnc2ncccc2c1=O	False
CC1CC(NC2CCCCC2)=Nc2ccccc2N1Cc1ccccc1 (configuration not stated)	False
CN1C(c2ccccc2)CC(O)CC1c1ccccc1 (configuration not stated)	False
Cc1csc2c1C(=O)c1ccsc1C2=O	False
COc1ccc(NC(=O)CC(=O)NNC(Sc2ccccc2)c2cc(/N=N/c3ccc(Br)cc3)ccc2O)cc1 (configuration not stated)	False
COC(=O)C1(Cc2cccc(Cl)c2)CCCCCCN1C(=O)c1ccccc1 (configuration not stated)	False
CN1C(=O)C(=O)N2c3ccc(Cl)cc3C3(c4ccccc4)N=CC12O3 (configuration not stated)	False
O=c1[nH]cc(C(F)(C(F)(F)F)C(F)(F)F)c(=O)[nH]1	False

----------
test system: NCI-H226; experiment: NCI tumour cell line growth inhibition, 48 h
Active and inactive are the calls of the source. Rule as the data show it: active = GI50 up to about 1.1 µM and inactive = higher.

Compound	Assayed system	GI50
COc1ccc(NC(=O)CC(=O)NNC(Sc2ccccc2)c2cc(/N=N/c3ccc(Br)cc3)ccc2O)cc1 (stereo unspecified)	NCI-H226	2.74 µM (inactive)
O=c1[nH]cc(C(F)(C(F)(F)F)C(F)(F)F)c(=O)[nH]1	NCI-H226	> 100 µM (inactive)
CC(=O)Nc1ccc(/C=C/C(=O)c2sc(-c3nc(C)c(C(=O)/C=C/c4ccc(NC(C)=O)cc4)s3)nc2C)cc1	NCI-H226	> 100 µM (inactive)
C[C@H]1[C@H](C)CC[C@]2(C(=O)OC3OC(CO)C(O)C(O)C3O)CC[C@]3(C)C(=CC[C@@H]4[C@@]5(C)C[C@@H](O)[C@@H]6OC(=O)c7cc(O)c(O)c(O)c7-c7c(cc(O)c(O)c7O)C(=O)OC[C@@]6(CO)[C@@H]5CC[C@]43C)[C@H]12 (stereo partly specified)	NCI-H226	> 100 µM (inactive)
O=C(O)Cc1cccc2c1OC(c1ccccc1)C(C(=O)c1ccccc1)C2=O (stereo unspecified)	NCI-H226	> 100 µM (inactive)
O=[As](O)(O)c1ccc(Cc2ccc([As](=O)(O)O)cc2)cc1	NCI-H226	3.78 µM (inactive)
Cc1ccc(NC(=O)/C(=N/NC(=O)C[N+](C)(C)C)c2nc3ccccc3nc2O)cc1	NCI-H226	> 100 µM (inactive)
COc1ccccc1-n1c(=O)n(C)c(=O)n1C(C)(C)C	NCI-H226	> 100 µM (inactive)
CC(=O)n1c2ccc(Br)cc2c2nc3ccccc3nc21	NCI-H226	> 100 µM (inactive)
CC(N)C(C)Cc1ccccc1 (stereo unspecified)	NCI-H226	> 100 µM (inactive)
COC(=O)/C(C#N)=C(\Nc1ccccc1)N1CCOCC1	NCI-H226	> 100 µM (inactive)
CCN1CCC(CNC(=O)c2ccc(N)cc2)N1CC (stereo unspecified)	NCI-H226	> 100 µM (inactive)
c1ccc2sc(C3(N4CCCCC4)CCCCCC3)cc2c1	NCI-H226	17.3 µM (inactive)
CC(=O)Oc1ccc2c(c1)C(=O)c1nc(C)c(C)nc1C2=O	NCI-H226	38.7 µM (inactive)
O=C(CSCC(=O)N/N=C/c1cc(I)cc(I)c1O)N/N=C/c1cc(I)cc(I)c1O	NCI-H226	7.91 µM (inactive)
Cn1c(=O)n(C2(C)CSC2)c2ccccc21	NCI-H226	> 100 µM (inactive)

----------
test system: HCC 2998; experiment: NCI tumour cell line growth inhibition, 48 h
Calls of active or inactive are those of the source. Cut-off read from the data, not from the text of the source: active = GI50 up to about 1.1 µM and inactive = higher.
Classes used: active, inactive

> print(dat)
                                    compound  assigned.class
 1  CC1(C)OC(CCC#N)CN1C(=O)OCc1ccccc1 (stereo unspecified)        inactive
 2     O=c1c(O)c(-c2ccccc2)n(O)c2ccc(Cl)cc12        inactive
 3  COc1cc(-c2[nH]ccc2Cl)oc1C1=C2N=C3C=C2C(C(C)C)C1CCCCCCCC3 (stereo unspecified)          active
 4       CC(=O)OCCOCn1c2c(c(=O)[nH]c1=O)CCC2        inactive
 5  COC(=O)C1=C(C=O)C2C=CC1C2 (stereo unspecified)        inactive
 6  Cc1cc2c(cc1C)C(=O)C1(C2)Cc2cc3c(cc2C1=O)CCC3 (stereo unspecified)        inactive
 7      Nc1nc(=O)n([C@@H]2CC[C@H](CO)O2)cc1F        inactive
 8  CCOC(=O)N1C2C=C(C)C(ON2C(=O)c2ccccc2)C2C(C)C(=O)N21 (stereo unspecified)        inactive
 9  COc1ccc(/N=N/c2ccc3oc(=O)c(C(=O)Nc4ccccc4)cc3c2)cc1        inactive
10  COc1ccc(C(C)c2cc3c(cc2O)OCO3)cc1 (stereo unspecified)        inactive
11  CCOP(=O)(C=C=C1CCC2[C@@H]3CCc4cc(OC)ccc4C3CC[C@]12C)OCC (stereo partly specified)        inactive

----------
system: BT-549; experiment: NCI tumour cell line growth inhibition, 48 h
Calls of active or inactive are those of the source. Rule as the data show it: active = GI50 up to about 1.1 µM and inactive = higher.
Classes used: t (active), f (inactive)

Compound	Assigned class
CCOC(=O)c1c(Sc2ccc([N+](=O)[O-])cc2[N+](=O)[O-])nc2c3ccccc3ccn12	f
N[C@@H](CCC(=O)NCP(=O)(O)O)C(=O)O	f
OC1(c2cccs2)c2cccc(Cl)c2C(O)(c2cccs2)c2c(Cl)cccc21 (stereo not given)	f
COc1ccc(C(C)c2cc3c(cc2O)OCO3)cc1 (stereo not given)	f
COc1cc2c(/C=C3/C(=O)Nc4cc(C)c(O)cc43)c(Cl)[nH]c2cc1C	f
COC(=O)/C=C1/OC(c2ccc(Br)cc2)=C(Br)C1=O	f
OC[C@H]1O[C@@H]2O[C@@](COCc3ccccc3)([C@H](OCc3ccccc3)[C@H]2O)[C@@H]1OCc1ccccc1	f
CCCCc1ccc(Nc2nc(Cl)c3ncn(C4CC(Oc5ccc(C)cc5)C(COc5ccc(C)cc5)O4)c3n2)cc1 (stereo not given)	f
CCOC(=O)CNc1c(OCc2ccccc2)c(=O)c1=O	f
CC(C)=CCC/C(C)=C/CC/C(C)=C/CSc1ccccc1C(=O)O [SALIRASIB]	f
CO[C@H]1[C@@H](O)[C@H](O[C@@H]2C[C@H]3CC[C@@H]4[C@H](CC[C@]5(C)[C@@H](C6=CC(=O)OC6)CC[C@]45O)[C@@]3(C)[C@H](OC(C)=O)C2)O[C@@H](C)[C@H]1O	t
O=C(CN1CCCCC1)Nc1ccc2c(c1)C1Oc3ccccc3CC1CO2 (stereo not given)	f
CCOC(=O)c1c(O)nc2cccc3c2c1-c1cccnc1S3	f
CCCCCCCCCC1(N=[N+]=[N-])C(=O)c2ccccc2N(C)C1=O (stereo not given)	f
N=C(N)CCNC(=O)C1CCC(N)=N1 (stereo not given)	f
Cc1cc(O)c(C(c2cccnc2)c2c(O)cc(C)[nH]c2=O)c(=O)[nH]1	f
c1ccc2sc(C3(N4CCCCC4)CCCCCC3)cc2c1	f
Cc1cn(CCOCCOC(=O)NC(CCCNC(=N)N)C(=O)O)c(=O)[nH]c1=O (stereo not given)	f
c1cc(-c2cscc2-c2ccsc2)cs1	f
COc1cc(-c2[nH]ccc2Cl)oc1C1=C2N=C3C=C2C(C(C)C)C1CCCCCCCC3 (stereo not given)	t

The measurements presented in this section are drawn from ChEMBL document CHEMBL1201862.
